This listing pairs molecules with measured Percent Effect.
# Tested on: Plasmodium falciparum
# Protocol Summary: Calibr Malaria Delayed Death Assay SOP
# Format: functional, organism-based
# Design: scale not given: in the data most compounds retested in dose-response had high values
# Test Parameters: concentration 4.99e-06 (unit not given; other assays of the set use mol/L)
Hit rate of the full screen: of about 38,000 compounds, about 1,200 (3.2%) showed an effect of 50% or more. The median lay at about -58%. Many of the other results were omitted from the sample, so strong results are more common in it than they were.
# output: bare number, implied unit %

Return value of Percent Effect for input "CCCNc1ccc(C(=O)NCCc2ccc(Cl)cc2)cn1" , no commentary. -35.94

Return value of Percent Effect for input CSCC(=O)N1CCOC(c2nc(C(C)(C)C)n[nH]2)C1 (stereo unspecified) , no commentary. -128.5

Return value of Percent Effect for input "Cc1cnn(CCCNC(=O)NCCS(=O)(=O)Nc2ccccc2)c1" , no commentary. -111.9

Return value of Percent Effect for input CC(C)(C)CN1CCCC12CCN(S(=O)(=O)c1ccccc1)C2.O=C(O)C(F)(F)F (stereo unspecified) , no commentary. 29.05

Return value of Percent Effect for input "N#Cc1ccc(N2CCCC3(CCN(c4cccnc4)CC3)C2)cc1.O=C(O)C(F)(F)F" , no commentary. -71.51

Return value of Percent Effect for input "CO[C@@H]1CCN(Cc2ccoc2)[C@H]1Cc1ccccc1.O=C(O)C(F)(F)F" , no commentary. 59.96

Return value of Percent Effect for input Cc1nccn1CCCN1CCCC(c2ccccc2)C1 (stereo unspecified) , no commentary. 77.62

Return value of Percent Effect for input "CCc1ccccc1OCCN1C[C@@H](NS(C)(=O)=O)[C@H](C(C)C)C1" , no commentary. 45.03

Return value of Percent Effect for input CCC1(CC)CC(=O)N(CC(O)c2cccc(F)c2)C1=O (stereo unspecified) , no commentary. -47.43

Return value of Percent Effect for input Cc1cnc(N2CCC3(CCCN(c4ncc(F)cn4)C3)C2)nc1 (stereo unspecified) , no commentary. -149.1

Return value of Percent Effect for input O=c1c(NCc2ccco2)c(NCC(O)CN2CCOCC2)c1=O (stereo unspecified) , no commentary. -219.4

Return value of Percent Effect for input COCC(c1ccccn1)N(C)C(=O)c1cc(-c2ccccc2O)n[nH]1 (stereo unspecified) , no commentary. -47.61

Return value of Percent Effect for input "Cn1ccnc1CN1CCC2(CC1)CN(Cc1cccnc1)C(=O)CO2.O=C(O)C(F)(F)F.O=C(O)C(F)(F)F" , no commentary. -38.55

Return value of Percent Effect for input "CCOC(=O)Cc1csc(NC(=O)c2cc(=O)c(OC)c[nH]2)n1" , no commentary. -55.6

Return value of Percent Effect for input "COC(=O)c1cc(C)nc(N2CCN(Cc3ccn(C(C)C)c3)CC2)n1" , no commentary. -8.689

Return value of Percent Effect for input "Cn1cc(CN2CC3(CCN(Cc4ccsc4)C3)C2)cn1" , no commentary. -1.772
